The entries below are paired with their reported Z-AUC.
assay: qHTS drug screen for cell cycle checkpoint inhibitors in PARPi-resistant BRCA-mutant ovarian cancer cell lines. (AID 1963452); conditions: PEO1/OlaR viability, CellTiter-Glo luminescence, 96 h; measured here: PEO4 Z-AUC; stronger effect = lower value
Keep it simple and answer with nothing but the number.

COc1ccc2[nH]c(C(=O)N3CCC(CC(C)(C)O)CC3)cc2c1: 0.395

Qu. Please give the documented Z-AUC of NC(=S)N/N=C/c1ncccc1N
Ans. 0.897

Qu. Please give the documented Z-AUC of O=C(NO)c1cnc(NC2(c3cccc(F)c3)CCCCC2)nc1
Ans. -0.635

Qu. Please give the documented Z-AUC of Cc1[nH]cnc1CN1CCN(C(=O)N[C@@H](CC(C)C)C(=O)O)[C@@H](Cc2ccccc2)C1=O
Ans. 0.0254

Qu. Please give the documented Z-AUC of CC1(C)C(N(O)C(=O)Nc2ccc(Cl)cc2)N(c2ccc(Cl)cc2)C(=O)N1CC(=O)N/N=C/C=C/c1ccc([N+](=O)[O-])o1 (stereo not given)
Ans. 1.09
